measurement.protocol: human hepatoma cell viability loss – ATP luminescence, cytotoxicity control for P. falciparum antimalarial project, primary screen (AID 2303)
particulars: HepG2 viability, 24-48 h, at 10 µM
Active and inactive are the calls of the source.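 How the source made its calls: active means inhibition above 50%; inactive means the rest.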
Outcome codes: YES (active), NO (inactive)

{"molecule": "Cc1ccc2nc(-c3cc(-c4ccc(OCc5ccccc5)cc4)cnc3N)[nH]c2c1", "classification": "NO"}
{"molecule": "CC(C)[C@H](NC(=O)NC1CCC(CCN2[C@@H]3CC[C@H]2CC(OC(=O)C(CO)c2ccccc2)C3)CC1)C(O)(c1ccccc1)c1ccccc1 (some centres undefined)", "classification": "NO"}
{"molecule": "CCCCCC(=O)N1CCOC(CCN2CCC(c3ccccc3)CC2)(c2ccc(Cl)c(Cl)c2)C1 (centres undefined)", "classification": "NO"}
{"molecule": "CC(c1cccc(S(=O)(=O)NCc2ccc(Cl)cc2Cl)c1)N1CCC(N2CCCCC2)CC1 (centres undefined)", "classification": "NO"}
{"molecule": "O=C(NC1CCN(CCN2CCC(c3c[nH]c4ccccc34)CC2)CC1)c1ccc(-c2ccc(C(F)(F)F)cc2)cc1", "classification": "YES"}
{"molecule": "Cc1ccc2nc(C)cc(NN=Cc3ccc([N+](=O)[O-])cc3)c2c1", "classification": "NO"}
{"molecule": "O=C(c1cc2nc3c(c(C(F)(F)F)n2n1)CCc1ccccc1-3)N1CCN2CCCC2C1 (centres undefined)", "classification": "NO"}
{"molecule": "CC=CC1CCNC(C(O)c2ccnc3ccc(OC)cc23)C1 (centres undefined)", "classification": "NO"}
{"molecule": "NC(=O)c1cccc(Nc2nccc(Nc3ccc(Oc4cccc(Cl)c4)c(Cl)c3)n2)c1", "classification": "NO"}
